// data source = patent US8895744B2

Target: Recombinant Abl T315I protein (Homo sapiens, UniProt P00519, T315I)
Experiment: Abl T315I mutant kinase inhibitory activity, ELISA-based in vitro kinase assay
Conditions: purified Abl T315I, 0.3 mM ATP
Would you kindly list IC50 for each of these compounds?
Numbers only, in µM.

Known results for compounds:
O=C(CSc1nc2ccccc2[nH]1)c1ccc2[nH]c3ncc(Cl)cc3c2c1	19
COc1ccc(-c2ccc3[nH]c4ncc(/C=C/c5ccccc5)cc4c3c2)cc1	6.5
C(=C\c1cnc2[nH]c3ccc(-c4ccc(N5CCOCC5)cn4)cc3c2c1)/c1ccccc1	3.1

// fetch IC50 given entry O=[N+]([O-])/C=C/c1ccc2[nH]c3ncc(Cl)cc3c2c1
9.8

###

System: parent untransformed BaF3 cells
Assay: Tritiated thymidine uptake cell proliferation assay, parental BaF3 (control)
Format: cell-based
Details: Mus musculus, 3[H]-thymidine uptake, 72 h, medium with IL-3, read-out: BaF parental IC50
REPORTED METRIC: pIC50
Give bare numbers, as −log10 of the molar value.

Examples from the recorded data:
C(=C\c1ccc2[nH]c3nc(Nc4ccccc4)ccc3c2c1)/c1ccccc1 [R320]	4.64
O=C(CSC1=NCCS1)c1ccc2[nH]c3ncc(Cl)cc3c2c1 [R282]	4.49

Take each entry in turn and give its pIC50.
1. c1coc(-c2ccc3c(n2)[nH]c2ccccc23)c1 [R326, 2-(furan-2-yl)-9H-pyrido[2,3-b]indole]
2. COc1ccc(CNC(=O)CCC(=O)c2ccc3[nH]c4ncc(Cl)cc4c3c2)cc1 [R304]
3. Clc1cnc2[nH]c3ccc(-c4ccc(CN5CCOCC5)cc4)cc3c2c1 [R313]

1. 5.06
2. 4.72
3. 6.30

###

Tested on: ALK-negative U937 cells
Assay: Tritiated thymidine uptake cell proliferation assay, U937 (control)
Assay type: cell-based
Settings: Homo sapiens, U-937; 3[H]-thymidine uptake, 72 h
REPORTED METRIC: pIC50
One number for each entry, as −log10 of the molar value.

COc1cccc(Nc2cnc3[nH]c4ccc(CCc5ccccc5)cc4c3c2)c1	4.89
CCCC#Cc1ccc2c(n1)[nH]c1ccccc12 [R341, 2-(pent-1-ynyl)-9H-pyrido[2,3-b]indole]	4.77
Clc1cnc2[nH]c3ccc(CCc4ccccc4)cc3c2c1	4.64

Can you give me pIC50 for all of these, one by one?
1. COc1ccc(-c2ccc3[nH]c4ncc(/C=C/c5ccccc5)cc4c3c2)cc1
2. CCN(CC)CCCOc1ccc(-c2ccc3[nH]c4ncc(Cl)cc4c3c2)cc1

4.68
5.96

###

Would you kindly list GI50 for each of these compounds?
Target: BaF3 cells transformed with the oncogenic fusion protein NPM/ALK (Homo sapiens, UniProt Q9UM73)
Construct: fused on or other part: P06748 (Nucleophosmin)
Sequence (Q9UM73 whole entry, change not shown, the tested form may be a part): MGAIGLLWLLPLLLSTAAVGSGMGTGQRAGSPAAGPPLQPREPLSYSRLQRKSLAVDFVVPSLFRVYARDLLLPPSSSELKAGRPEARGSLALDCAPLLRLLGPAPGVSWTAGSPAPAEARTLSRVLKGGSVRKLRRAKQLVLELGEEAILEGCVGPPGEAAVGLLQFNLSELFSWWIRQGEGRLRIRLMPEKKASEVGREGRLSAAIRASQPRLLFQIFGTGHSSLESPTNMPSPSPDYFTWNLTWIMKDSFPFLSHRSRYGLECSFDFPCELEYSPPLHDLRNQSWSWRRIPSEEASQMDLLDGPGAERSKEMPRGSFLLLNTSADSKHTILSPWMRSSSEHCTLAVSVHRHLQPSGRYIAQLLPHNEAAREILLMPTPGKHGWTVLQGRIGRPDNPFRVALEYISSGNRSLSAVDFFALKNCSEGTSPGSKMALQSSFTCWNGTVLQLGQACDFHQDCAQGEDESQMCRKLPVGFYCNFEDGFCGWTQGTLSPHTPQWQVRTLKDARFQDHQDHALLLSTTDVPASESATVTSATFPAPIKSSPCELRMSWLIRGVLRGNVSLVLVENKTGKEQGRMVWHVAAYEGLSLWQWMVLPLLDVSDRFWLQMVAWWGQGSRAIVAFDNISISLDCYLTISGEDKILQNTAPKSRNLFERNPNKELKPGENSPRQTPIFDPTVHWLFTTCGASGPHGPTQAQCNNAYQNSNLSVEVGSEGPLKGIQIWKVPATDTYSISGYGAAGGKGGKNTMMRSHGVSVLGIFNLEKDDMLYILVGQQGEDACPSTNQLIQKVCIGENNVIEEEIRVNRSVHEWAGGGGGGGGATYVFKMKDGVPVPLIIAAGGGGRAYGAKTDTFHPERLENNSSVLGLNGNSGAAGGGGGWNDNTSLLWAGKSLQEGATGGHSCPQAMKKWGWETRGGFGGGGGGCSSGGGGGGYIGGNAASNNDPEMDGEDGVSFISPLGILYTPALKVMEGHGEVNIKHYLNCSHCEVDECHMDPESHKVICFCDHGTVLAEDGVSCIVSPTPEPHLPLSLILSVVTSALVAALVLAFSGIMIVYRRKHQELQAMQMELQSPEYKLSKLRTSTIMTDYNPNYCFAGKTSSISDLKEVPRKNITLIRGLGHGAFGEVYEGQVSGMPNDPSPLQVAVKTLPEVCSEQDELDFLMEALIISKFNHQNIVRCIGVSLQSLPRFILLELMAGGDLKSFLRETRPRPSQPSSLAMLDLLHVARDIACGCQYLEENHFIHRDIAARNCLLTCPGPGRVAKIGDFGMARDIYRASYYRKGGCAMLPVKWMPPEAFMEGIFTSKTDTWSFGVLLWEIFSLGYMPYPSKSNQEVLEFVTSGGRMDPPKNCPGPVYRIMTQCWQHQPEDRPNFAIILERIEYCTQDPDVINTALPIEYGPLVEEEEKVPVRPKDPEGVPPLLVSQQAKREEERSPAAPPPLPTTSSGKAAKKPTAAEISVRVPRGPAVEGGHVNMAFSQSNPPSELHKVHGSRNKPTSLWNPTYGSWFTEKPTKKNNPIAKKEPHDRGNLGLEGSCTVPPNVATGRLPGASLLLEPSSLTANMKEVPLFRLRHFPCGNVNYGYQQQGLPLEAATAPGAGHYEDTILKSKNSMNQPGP
Test: Tritiated thymidine uptake cell proliferation assay, BaF3 NPM/ALK
Assay type: cell-based
Settings: 3[H]-thymidine uptake, 72 h; read-out: BaF NPM/ALK IC50
Give bare numbers, in µM.

COc1ccc(-c2ccc3[nH]c4nc(-c5ccc(OC)cc5)ccc4c3c2)cc1	15
O=C(CSc1nc2ccccc2[nH]1)c1ccc2[nH]c3ncc(Cl)cc3c2c1	1
C(=C\c1cnc2[nH]c3ccc(-c4ccc(CN5CCOCC5)cc4)cc3c2c1)/c1ccccc1	1.6
O=C(CSc1ccccc1)c1ccc2[nH]c3ncc(Cl)cc3c2c1	8
O=[N+]([O-])c1cccc(Nc2ccc3c(n2)[nH]c2ccccc23)c1	2.6

Tell me GI50 reported for COc1ccc(-c2ccnc3[nH]c4ccccc4c23)cc1
25

###

Please go through the items and note down their log10 IC50.
Biological target: Recombinant Abl T315I protein (Homo sapiens, UniProt P00519, T315I)
Test: Abl T315I mutant kinase inhibitory activity, ELISA-based in vitro kinase assay
Settings: purified Abl T315I, 0.3 mM ATP
Please note: log10 values; quantity IC50; unit µM.

Here's what some known entries look like.
O=Cc1ccc2[nH]c3ncc(Cl)cc3c2c1	1.30
COc1ccc(-c2cnc3[nH]c4ccccc4c3c2)cc1	1.36
O=C(CBr)c1ccc2[nH]c3ncccc3c2c1	1.11
O=C(CSc1ccccn1)c1ccc2[nH]c3ncccc3c2c1	1.69
O=C(CSc1nc2ccccc2s1)c1ccc2[nH]c3ncc(Cl)cc3c2c1	0.64
O=C(CSC1=NCCS1)c1ccc2[nH]c3ncc(Cl)cc3c2c1	1.56
O=C(NCCc1ccc2[nH]c3ncc(Cl)cc3c2c1)c1ccccc1	1.73
O=C(CSc1ccccn1)c1ccc2[nH]c3ncc(Cl)cc3c2c1	1.61

Please give log10 IC50, item by item, for the list that follows.
1. O=[N+]([O-])c1ccccc1Nc1ccc2c(n1)[nH]c1ccccc12
2. COc1ccc(-c2ccc3[nH]c4nc(-c5ccc(OC)cc5)ccc4c3c2)cc1
3. CCN(CC)CCSCC(=O)c1ccc2[nH]c3ncc(Cl)cc3c2c1
4. O=[N+]([O-])c1cccc(Nc2ccc3c(n2)[nH]c2ccccc23)c1
5. C(=C\c1cnc2[nH]c3ccccc3c2c1)/c1ccccc1

1. 1.20
2. 0.92
3. 1.68
4. 1.41
5. 0.26

Quickly give me recorded log10 IC50 for CN1CCN(C(=O)CCC(=O)c2ccc3[nH]c4ncc(Cl)cc4c3c2)CC1
1.94

###

Biological target: Recombinant Ret protein (Homo sapiens, UniProt P07949)
Sequence (P07949 29-1114): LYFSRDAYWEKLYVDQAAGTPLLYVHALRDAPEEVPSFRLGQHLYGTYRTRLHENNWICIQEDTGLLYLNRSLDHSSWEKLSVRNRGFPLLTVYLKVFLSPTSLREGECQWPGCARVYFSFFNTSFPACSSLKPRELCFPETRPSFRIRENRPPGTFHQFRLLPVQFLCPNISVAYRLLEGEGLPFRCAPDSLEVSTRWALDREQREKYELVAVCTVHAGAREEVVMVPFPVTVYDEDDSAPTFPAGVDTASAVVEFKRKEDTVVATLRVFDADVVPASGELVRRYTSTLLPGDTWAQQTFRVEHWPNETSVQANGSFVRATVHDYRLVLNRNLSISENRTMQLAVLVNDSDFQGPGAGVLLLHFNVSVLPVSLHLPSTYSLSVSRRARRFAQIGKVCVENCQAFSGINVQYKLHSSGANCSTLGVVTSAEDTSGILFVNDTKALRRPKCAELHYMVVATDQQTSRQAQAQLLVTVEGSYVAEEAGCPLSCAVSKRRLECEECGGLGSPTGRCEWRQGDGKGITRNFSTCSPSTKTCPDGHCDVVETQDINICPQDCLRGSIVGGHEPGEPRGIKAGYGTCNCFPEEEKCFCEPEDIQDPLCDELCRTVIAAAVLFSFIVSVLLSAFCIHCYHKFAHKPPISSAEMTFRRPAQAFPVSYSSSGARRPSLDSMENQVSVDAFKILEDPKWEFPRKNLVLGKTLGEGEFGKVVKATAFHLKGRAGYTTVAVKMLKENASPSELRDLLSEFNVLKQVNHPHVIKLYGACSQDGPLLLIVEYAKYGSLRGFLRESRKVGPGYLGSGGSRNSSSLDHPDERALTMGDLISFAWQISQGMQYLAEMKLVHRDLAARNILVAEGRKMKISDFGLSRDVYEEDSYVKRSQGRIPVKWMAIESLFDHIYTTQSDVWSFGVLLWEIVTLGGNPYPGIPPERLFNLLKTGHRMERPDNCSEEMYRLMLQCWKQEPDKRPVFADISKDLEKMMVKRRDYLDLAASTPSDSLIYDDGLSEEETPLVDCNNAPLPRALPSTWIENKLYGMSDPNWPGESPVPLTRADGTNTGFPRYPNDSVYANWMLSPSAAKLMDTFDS
Assay: RET kinase inhibitory activity, ELISA-based in vitro kinase assay
Details: purified Ret, 0.3 mM ATP
REPORTED METRIC: pIC50
Give bare numbers, as −log10 of the molar value.

Oc1cnc2[nH]c3ccc(CCc4ccccc4)cc3c2c1	6.00
CCN(CC)CCSCC(=O)c1ccc2[nH]c3ncc(Cl)cc3c2c1	5.24
CN(C)CCSCC(=O)c1ccc2[nH]c3ncc(Cl)cc3c2c1	4.39

For O=C(CSC1=NCCS1)c1ccc2[nH]c3ncc(Cl)cc3c2c1 , write its pIC50.
5.02

###

Biological target: Recombinant ALK kinase (Homo sapiens, UniProt Q9UM73)
Construct: made in house; host or cells: Sf9 insect cells (baculovirus)
Sequence (Q9UM73 19-1620): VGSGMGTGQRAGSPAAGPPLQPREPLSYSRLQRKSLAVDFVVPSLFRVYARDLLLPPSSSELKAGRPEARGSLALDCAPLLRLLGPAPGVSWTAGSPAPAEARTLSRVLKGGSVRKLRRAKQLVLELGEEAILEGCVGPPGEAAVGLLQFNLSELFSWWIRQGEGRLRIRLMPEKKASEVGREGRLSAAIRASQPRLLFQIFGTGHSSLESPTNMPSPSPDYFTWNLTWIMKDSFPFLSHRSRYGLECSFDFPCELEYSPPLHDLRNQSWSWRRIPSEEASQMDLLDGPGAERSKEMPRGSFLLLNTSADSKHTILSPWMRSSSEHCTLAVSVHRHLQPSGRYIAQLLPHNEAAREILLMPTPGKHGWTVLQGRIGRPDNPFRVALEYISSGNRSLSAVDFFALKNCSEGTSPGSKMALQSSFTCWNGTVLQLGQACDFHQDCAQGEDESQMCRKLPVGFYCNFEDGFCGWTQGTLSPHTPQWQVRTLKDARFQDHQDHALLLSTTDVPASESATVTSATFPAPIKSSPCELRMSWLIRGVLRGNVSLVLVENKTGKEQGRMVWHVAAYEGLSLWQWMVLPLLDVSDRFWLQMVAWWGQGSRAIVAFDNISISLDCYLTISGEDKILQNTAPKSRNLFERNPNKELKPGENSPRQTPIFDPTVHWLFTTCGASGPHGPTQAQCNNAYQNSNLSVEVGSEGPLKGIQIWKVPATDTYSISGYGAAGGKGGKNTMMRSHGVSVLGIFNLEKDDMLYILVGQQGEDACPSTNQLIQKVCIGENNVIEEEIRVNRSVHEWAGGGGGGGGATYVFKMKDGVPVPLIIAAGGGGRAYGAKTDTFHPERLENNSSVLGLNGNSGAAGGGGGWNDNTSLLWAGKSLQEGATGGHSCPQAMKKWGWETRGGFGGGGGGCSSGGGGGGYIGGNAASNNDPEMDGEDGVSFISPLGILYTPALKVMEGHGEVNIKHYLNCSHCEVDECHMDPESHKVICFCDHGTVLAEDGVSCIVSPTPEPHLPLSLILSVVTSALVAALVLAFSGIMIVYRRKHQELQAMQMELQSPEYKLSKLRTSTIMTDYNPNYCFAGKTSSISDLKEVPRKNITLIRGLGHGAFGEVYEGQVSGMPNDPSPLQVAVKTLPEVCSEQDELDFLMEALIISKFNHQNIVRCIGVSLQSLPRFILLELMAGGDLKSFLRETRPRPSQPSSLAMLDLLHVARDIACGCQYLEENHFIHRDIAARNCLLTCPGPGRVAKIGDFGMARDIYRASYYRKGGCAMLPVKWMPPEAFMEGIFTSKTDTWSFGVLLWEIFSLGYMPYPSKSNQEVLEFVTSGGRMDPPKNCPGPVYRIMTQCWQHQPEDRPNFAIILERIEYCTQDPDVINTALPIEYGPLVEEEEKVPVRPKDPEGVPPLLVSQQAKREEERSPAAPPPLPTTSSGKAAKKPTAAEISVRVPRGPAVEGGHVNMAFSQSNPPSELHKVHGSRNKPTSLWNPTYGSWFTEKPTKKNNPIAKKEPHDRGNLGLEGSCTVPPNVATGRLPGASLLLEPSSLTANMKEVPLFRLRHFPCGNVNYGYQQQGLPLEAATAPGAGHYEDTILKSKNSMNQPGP
Assay: ALK kinase inhibitory activity, ELISA-based in vitro kinase assay
Type: biochemical
Settings: repeated determinations, 2nd or 'then', read-out: ALK IC50, 2nd / subsequent determination
REPORTED METRIC: IC50 (µM)
Give bare numbers, in µM.

Please supply the value of reported IC50 for the item COc1ccc(/C=C/c2ccc3[nH]c4ncc(Cl)cc4c3c2)cc1 [R350]
35

###

Molecular target: Recombinant ALK kinase (Homo sapiens, UniProt Q9UM73)
Construct: made in house; host or cells: Sf9 insect cells (baculovirus)
Assay: ALK kinase inhibitory activity, ELISA-based in vitro kinase assay
Type: biochemical
Details: purified rALK, 0.3 mM ATP, read-out: ALK IC50
REPORTED METRIC: pIC50
Give bare numbers, as −log10 of the molar value.

O=C(CSc1ccccn1)c1ccc2[nH]c3ncccc3c2c1	4.89
c1ccc(CCc2ccc3[nH]c4ncc(-c5ccc6c(c5)OCO6)cc4c3c2)cc1	4.89
O=C(NCCc1ccc2[nH]c3ncc(Cl)cc3c2c1)c1ccccc1	4.40
C(=C\c1cnc2[nH]c3ccc(-c4ccc(N5CCOCC5)cn4)cc3c2c1)/c1ccccc1	6.30

Provide pIC50 values for the following items, in order.
1. O=[N+]([O-])c1cccc(-c2cnc3[nH]c4ccccc4c3c2)c1 [R328, 3-(3-nitrophenyl)-9H-pyrido[2,3-b]indole]
2. CCN(CC)CCCOc1ccc(-c2ccc3[nH]c4ncc(C=Cc5ccccc5)cc4c3c2)cc1
3. C(=C\c1cnc2[nH]c3ccccc3c2c1)/c1ccccc1
4. CN(C)CCSCC(=O)c1ccc2[nH]c3ncc(Cl)cc3c2c1
5. COC(=O)C(=O)c1ccc2[nH]c3nc(C)ccc3c2c1

1: 4.32; 2: 5.15; 3: 6.30; 4: 4.44; 5: 4.60

Hi! Can you tell me pIC50 for each of these compounds?
1. O=[N+]([O-])c1cccc(Nc2ccc3c(n2)[nH]c2ccccc23)c1
2. Cc1ccc2c(n1)[nH]c1ccc(C(=O)c3ccccc3)cc12
3. O=[N+]([O-])c1ccccc1Nc1ccc2c(n1)[nH]c1ccc(/C=C/c3ccccc3)cc12
4. Clc1cnc2[nH]c3ccc(Br)cc3c2c1 [R252, 6-bromo-3-chloro-9H-pyrido[2,3-b]indole]
5. COc1ccc(-c2ccnc3[nH]c4ccccc4c23)cc1
6. O=C(CSc1ccccc1)c1ccc2[nH]c3nc(Cl)ccc3c2c1

1: 5.09; 2: 4.82; 3: 4.89; 4: 5.77; 5: 5.40; 6: 6.10

###

Task for the reader: assign each of the following molecules its reported log10 of IC50.
System: parent untransformed BaF3 cells
Assay: Tritiated thymidine uptake cell proliferation assay, parental BaF3 (control)
Type: cell-based
Settings: Mus musculus, 3[H]-thymidine uptake, 72 h, medium with IL-3, read-out: BaF parental IC50
All values: log10 IC50 [µM].

COc1ccc(-c2ccc3[nH]c4ncc(/C=C/c5ccccc5)cc4c3c2)cc1 [R315]	1.40
CCCC#Cc1ccc2c(n1)[nH]c1ccccc12 [R341, 2-(pent-1-ynyl)-9H-pyrido[2,3-b]indole]	1.85
COc1cccc(Nc2ccnc3[nH]c4ccccc4c23)c1 [R324]	0.23
O=Cc1ccc2[nH]c3ncc(Cl)cc3c2c1 [R267]	1.23
COc1cccc(Nc2cnc3[nH]c4ccc(CCc5ccccc5)cc4c3c2)c1 [R352]	0.72

# lookup: parent untransformed BaF3 cells log10 of IC50, key = O=C(CSCCOc1ccccc1)c1ccc2[nH]c3ncc(Cl)cc3c2c1 [R280]
1.57
